# Tested on: male mice
# Format: in vivo
# SETUP_CONDITIONS: po
PROPERTY_NAME: Sub-atmospheric pressure hypoxaemia

>>> print(df.to_string())
                                   compound  observed_measurement
0  CN(C)CCOC(=O)COc1ccc(Cl)cc1 [Meclofenoxate, meclofenoxate]                     -
1  CC[C@]12CCCN3CCc4c(n(c5ccccc45)[C@@](O)(C(=O)OC)C1)[C@@H]32                     +
2  CC(C)NCC(O)COc1cccc2ccccc12 (stereo not shown)                     -
3                          NC(=O)CN1CCCC1=O                     +
